B1: HDV Ribozyme (parent)
chain: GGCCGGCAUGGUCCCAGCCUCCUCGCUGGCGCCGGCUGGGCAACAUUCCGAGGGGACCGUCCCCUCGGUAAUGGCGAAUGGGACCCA

Variants of: B1
Test: self-cleavage, relative activity (ratio to wild type); higher = more cleavage; co-transcriptional
READOUT KIND: self-cleavage

{"MUTATION NOTATION": "C36G G52C", "READOUT KIND": "self-cleavage", "NUMBER": 0.166}
{"MUTATION NOTATION": "C33G A51U", "READOUT KIND": "self-cleavage", "NUMBER": 0.0811}
{"MUTATION NOTATION": "G31U A71G", "READOUT KIND": "self-cleavage", "NUMBER": 0.271}
{"MUTATION NOTATION": "C26U U27C", "READOUT KIND": "self-cleavage", "NUMBER": 1.29}
{"MUTATION NOTATION": "G29C U69C", "READOUT KIND": "self-cleavage", "NUMBER": 0}
{"MUTATION NOTATION": "G39U C75A", "READOUT KIND": "self-cleavage", "NUMBER": 0.166}
{"MUTATION NOTATION": "C3G C19A", "READOUT KIND": "self-cleavage", "NUMBER": 0.0594}
{"MUTATION NOTATION": "G39C G68C", "READOUT KIND": "self-cleavage", "NUMBER": 0.339}
{"MUTATION NOTATION": "C3A G28A", "READOUT KIND": "self-cleavage", "NUMBER": 0.0138}
{"MUTATION NOTATION": "C4A G29U", "READOUT KIND": "self-cleavage", "NUMBER": 0}
{"MUTATION NOTATION": "C4U G39U", "READOUT KIND": "self-cleavage", "NUMBER": 0.58}
{"MUTATION NOTATION": "C3A A42U", "READOUT KIND": "self-cleavage", "NUMBER": 0.0773}
{"MUTATION NOTATION": "G2U G55U", "READOUT KIND": "self-cleavage", "NUMBER": 0.0654}
{"MUTATION NOTATION": "C19A C85G", "READOUT KIND": "self-cleavage", "NUMBER": 0.149}
{"MUTATION NOTATION": "C75U G76U", "READOUT KIND": "self-cleavage", "NUMBER": 0.271}
{"MUTATION NOTATION": "G11A C19G", "READOUT KIND": "self-cleavage", "NUMBER": 0.0231}
{"MUTATION NOTATION": "G40A C57A", "READOUT KIND": "self-cleavage", "NUMBER": 1.18}
{"MUTATION NOTATION": "U9G A70G", "READOUT KIND": "self-cleavage", "NUMBER": 0.831}
{"MUTATION NOTATION": "C21G A45G", "READOUT KIND": "self-cleavage", "NUMBER": 0.185}
{"MUTATION NOTATION": "G53A A56U", "READOUT KIND": "self-cleavage", "NUMBER": 0.873}
{"MUTATION NOTATION": "G34A C61U", "READOUT KIND": "self-cleavage", "NUMBER": 0.213}
{"MUTATION NOTATION": "C33G A51C", "READOUT KIND": "self-cleavage", "NUMBER": 0.246}
{"MUTATION NOTATION": "A42C A83G", "READOUT KIND": "self-cleavage", "NUMBER": 0.129}
{"MUTATION NOTATION": "C15A C21U", "READOUT KIND": "self-cleavage", "NUMBER": 0.0415}
{"MUTATION NOTATION": "G35U G40U", "READOUT KIND": "self-cleavage", "NUMBER": 0.12}
{"MUTATION NOTATION": "G6A U27G", "READOUT KIND": "self-cleavage", "NUMBER": 0.643}
{"MUTATION NOTATION": "A16C C48U", "READOUT KIND": "self-cleavage", "NUMBER": 0.677}
{"MUTATION NOTATION": "C44A U46A", "READOUT KIND": "self-cleavage", "NUMBER": 0.677}
{"MUTATION NOTATION": "A71U G73U", "READOUT KIND": "self-cleavage", "NUMBER": 0.237}
{"MUTATION NOTATION": "C3A C41A", "READOUT KIND": "self-cleavage", "NUMBER": 0.25}
{"MUTATION NOTATION": "G11A C26A", "READOUT KIND": "self-cleavage", "NUMBER": 0.878}
{"MUTATION NOTATION": "G50A G81A", "READOUT KIND": "self-cleavage", "NUMBER": 0.415}
{"MUTATION NOTATION": "A43G U46C", "READOUT KIND": "self-cleavage", "NUMBER": 0.443}
{"MUTATION NOTATION": "G28A G39U", "READOUT KIND": "self-cleavage", "NUMBER": 0.0692}
{"MUTATION NOTATION": "U72A G73C", "READOUT KIND": "self-cleavage", "NUMBER": 0.628}
{"MUTATION NOTATION": "G39A G67A", "READOUT KIND": "self-cleavage", "NUMBER": 0.453}
{"MUTATION NOTATION": "U27C A78C", "READOUT KIND": "self-cleavage", "NUMBER": 0.0594}
{"MUTATION NOTATION": "C22A C86U", "READOUT KIND": "self-cleavage", "NUMBER": 0.293}
